Examples of compounds with documented Galium plant response rating (0 to 100 scale) follow.
Tested on: galium (catchweed bedstraw, Galium aparine)
Experiment: Test A postemergence application, visual injury rating 0-100
Type: in vivo
Conditions: Postemergence, 31 g ai/ha, greenhouse 10 days; 0 no effect, 100 complete control
In your answer, state the number alone without any accompanying words.

Some entries whose results are on file:
Query block: Could you tell me which Galium plant response rating (0 to 100 scale) is on file for CC1(C(=O)NC2CC=C(C(=O)O)C2)CN(c2cc(Cl)cc(Cl)c2)C(=O)O1 (stereo not drawn) [Compound 72] ?
Result block: 80

Query block: Could you tell me which Galium plant response rating (0 to 100 scale) is on file for CCCS(=O)(=O)OC(=O)C1C=CC(NC(=O)C2(C)CN(c3cc(Cl)cc(Cl)c3)C(=O)O2)C1 (mixture of isomers) [Compound 79] ?
Result block: 80

Query block: Could you tell me which Galium plant response rating (0 to 100 scale) is on file for CCS(=O)(=O)NC(=O)C1C=CC(NC(=O)C2(C)CN(c3cc(Cl)cc(Cl)c3)C(=O)O2)C1 (stereo not drawn) [Compound 83] ?
Result block: 80

Query block: Could you tell me which Galium plant response rating (0 to 100 scale) is on file for CC1(C(=O)NC2C=CC(C(=O)NS(=O)(=O)c3ccccc3)C2)CN(c2cc(Cl)cc(Cl)c2)C(=O)O1 (stereo not drawn) [Compound 86] ?
Result block: 70

Continuing:
Query block: Could you tell me which Galium plant response rating (0 to 100 scale) is on file for CSCCOC(=O)C1C=CC(NC(=O)C2(C)CN(c3cc(Cl)cc(Cl)c3)C(=O)O2)C1 (stereo not drawn) [Compound 69] ?
Result block: 80

Query block: Could you tell me which Galium plant response rating (0 to 100 scale) is on file for CC1(C(=O)NC2C=CC(C(=O)NS(=O)(=O)c3ccccc3)C2)CN(c2cc(F)cc(F)c2)C(=O)O1 (stereo not drawn) [Compound 88] ?
Result block: 70

====

System: palmer (palmer amaranth, palmer pigweed, Amaranthus palmeri)
Assay: Test A postemergence application, visual injury rating 0-100
Format: in vivo
Details: 31 g ai/ha, postemergence, 10 days, 0 = no effect, 100 = complete control
Label key: class 1 means Amaranth, Palmer plant response rating (0-100) under 20; class 0 means Amaranth, Palmer plant response rating (0-100) of 20 or more.

Some solved entries appear below for comparison.
Query block: Please check: Amaranth, Palmer plant response rating (0-100) for COC(=O)C1=CCC(NC(=O)C2(C)CN(c3cc(F)cc(F)c3)C(=O)O2)C1 (centres unmarked) [Compound 21] , strictly under 20 or not?
Result block: class 0

Query block: Please check: Amaranth, Palmer plant response rating (0-100) for CONC(=O)C1CC(NC(=O)C2(C)CN(c3cc(F)cc(F)c3)C(=O)O2)CO1 (centres unmarked) [Compound 40] , strictly under 20 or not?
Result block: class 1

Query block: Please check: Amaranth, Palmer plant response rating (0-100) for CC1(C(=O)NC2CC=C(C(=O)O)C2)CN(c2cc(F)cc(F)c2)C(=O)O1 (centres unmarked) [Compound 38] , strictly under 20 or not?
Result block: class 0

Query block: Please check: Amaranth, Palmer plant response rating (0-100) for CC(C)OC(=O)C1C=CC(NC(=O)C2(C)CN(c3cc(F)cc(Cl)c3)C(=O)O2)C1 (centres unmarked) [Compound 4] , strictly under 20 or not?
Result block: class 0

Continuing:
Query block: Please check: Amaranth, Palmer plant response rating (0-100) for CC1(C(=O)NC2CCC(C(=O)NS(C)(=O)=O)C2)CN(c2cc(F)cc(F)c2)C(=O)O1 (centres unmarked) [Compound 13] , strictly under 20 or not?
Result block: class 1

Query block: Please check: Amaranth, Palmer plant response rating (0-100) for CC1(C(=O)NC2CC=C(C(=O)OCC(F)(F)F)C2)CN(c2cc(F)cc(F)c2)C(=O)O1 (centres unmarked) [Compound 1] , strictly under 20 or not?
Result block: class 0

Query block: Please check: Amaranth, Palmer plant response rating (0-100) for CCOC(=O)C1CCC(NC(=O)C2(C)CN(c3cc(F)cc(Cl)c3)C(=O)O2)C1 (centres unmarked) [Compound 19] , strictly under 20 or not?
Result block: class 0

Query block: Please check: Amaranth, Palmer plant response rating (0-100) for CC1(C(=O)NC2CC=C(C(=O)OCC(F)(F)F)C2)CN(c2cc(F)cc(F)c2)C(=O)O1 (single isomer, unassigned) [Compound 24] , strictly under 20 or not?
Result block: class 1

====

Examples of compounds with documented Wheat plant response rating (0 to 100 scale) follow.
Test system: wheat (Triticum aestivum)
Experiment: Test A postemergence application, visual injury rating 0-100
Format: in vivo
Conditions: Postemergence, 125 g ai/ha, 10 days; 0 is no effect, 100 is complete control
In your answer, state the number alone without any accompanying words.

Query block: Could you tell me which Wheat plant response rating (0 to 100 scale) is on file for CNC(=O)C1CCC(NC(=O)C2(C)CN(c3cc(F)cc(F)c3)C(=O)O2)C1 (centres unmarked) [Compound 14] ?
Result block: 0

Query block: Could you tell me which Wheat plant response rating (0 to 100 scale) is on file for COC(=O)C1CCC(NC(=O)C2(C)CN(c3cc(F)cc(F)c3)C(=O)O2)C1 (centres unmarked) [Compounds 10] ?
Result block: 90

Query block: Could you tell me which Wheat plant response rating (0 to 100 scale) is on file for CCOC(=O)C1CCC(NC(=O)C2(C)CN(c3cc(F)cc(Cl)c3)C(=O)O2)C1 (centres unmarked) [Compound 19] ?
Result block: 90

Query block: Could you tell me which Wheat plant response rating (0 to 100 scale) is on file for CCOC(=O)C1C=CC(NC(=O)C2(C)CN(c3cc(F)cc(Cl)c3)C(=O)O2)C1 (centres unmarked) [Compound 3] ?
Result block: 90

Query block: Could you tell me which Wheat plant response rating (0 to 100 scale) is on file for CCOC(=O)COC(=O)C1C=CC(NC(=O)C2(C)CN(c3cc(F)cc(F)c3)C(=O)O2)C1 (centres unmarked) [Compound 53] ?
Result block: 90

Query block: Could you tell me which Wheat plant response rating (0 to 100 scale) is on file for CC1(C(=O)NC2CC=C(C(=O)O)C2)CN(c2cc(Cl)cc(Cl)c2)C(=O)O1 (centres unmarked) [Compound 72] ?
Result block: 90

Query block: Could you tell me which Wheat plant response rating (0 to 100 scale) is on file for CC(C)COC(=O)C1C=CC(NC(=O)C2(C)CN(c3cc(Cl)cc(Cl)c3)C(=O)O2)C1 (centres unmarked) [Compound 66] ?
Result block: 90

Continuing:
Query block: Could you tell me which Wheat plant response rating (0 to 100 scale) is on file for CONC(=O)C1C=CC(NC(=O)C2(C)CN(c3cc(F)cc(F)c3)C(=O)O2)C1 (centres unmarked) [Compound 25] ?
Result block: 80

====

Test system: oat, wild (wild oat, Avena fatua)
Experiment: Test A preemergence soil spray, visual injury rating 0-100
Format: in vivo
Settings: 62 g ai/ha, 10 days, 0 = no effect, 100 = complete control
From the text: […]
observation type: Oat, Wild plant response rating (0-100)

Some entries whose results are on file:
Query block: Could you tell me which Oat, Wild plant response rating (0-100) is on file for Cc1cc(C)cc(N2CC(C)(C(=O)NC3C=CC(C(=O)O)C3)OC2=O)c1 (stereo not shown) ?
Result block: 30

Query block: Could you tell me which Oat, Wild plant response rating (0-100) is on file for COC(=O)COC(=O)C1=CCC(NC(=O)C2(C)CN(c3cc(F)cc(F)c3)C(=O)O2)C1 (stereo not shown) [Compound 108] ?
Result block: 70

Query block: Could you tell me which Oat, Wild plant response rating (0-100) is on file for C=CC1(C(=O)NC2C=CC(C(=O)OC)C2)CN(c2cc(F)cc(F)c2)C(=O)O1 (single isomer, unassigned) ?
Result block: 0

Here is the next item to consider.
Query block: Could you tell me which Oat, Wild plant response rating (0-100) is on file for CSCCOC(=O)C1=CCC(NC(=O)C2(C)CN(c3cc(Cl)cc(Cl)c3)C(=O)O2)C1 (stereo not shown) ?
Result block: 0

====

Tested on: horseweed (Erigeron canadensis)
Experiment: Test A postemergence application, visual injury rating 0-100
Format: in vivo
Settings: 31 g ai/ha, postemergence, 10 days, 0 = no effect, 100 = complete control
Examples of compounds with documented Horseweed plant response rating (0-100) follow.
In your answer, state the number alone without any accompanying words.

Query block: // fetch horseweed (Erigeron canadensis) Horseweed plant response rating (0-100) for CC1(C(=O)NC2C=CC(C(=O)OC3CCCC3)C2)CN(c2cc(Cl)cc(Cl)c2)C(=O)O1 (stereo not shown)
Result block: 20

Query block: // fetch horseweed (Erigeron canadensis) Horseweed plant response rating (0-100) for CNC(=O)C1CC(NC(=O)C2(C)CN(c3cc(F)cc(F)c3)C(=O)O2)CO1 (stereo not shown)
Result block: 30

Query block: // fetch horseweed (Erigeron canadensis) Horseweed plant response rating (0-100) for COC(=O)C1=CCC(NC(=O)C2(C)CN(c3cc(Cl)cc(Cl)c3)C(=O)O2)C1 (stereo not shown)
Result block: 80

Here is the next item to consider.
Query block: // fetch horseweed (Erigeron canadensis) Horseweed plant response rating (0-100) for CC1(C(=O)NC2CCC(C(=O)NS(C)(=O)=O)C2)CN(c2cc(F)cc(F)c2)C(=O)O1 (stereo not shown)
Result block: 0
